Biological target: bacteriophage T4 DNA polymerase (Enterobacteria phage T4, UniProt P04415)
Construct: made in house
Sequence (P04415 whole entry): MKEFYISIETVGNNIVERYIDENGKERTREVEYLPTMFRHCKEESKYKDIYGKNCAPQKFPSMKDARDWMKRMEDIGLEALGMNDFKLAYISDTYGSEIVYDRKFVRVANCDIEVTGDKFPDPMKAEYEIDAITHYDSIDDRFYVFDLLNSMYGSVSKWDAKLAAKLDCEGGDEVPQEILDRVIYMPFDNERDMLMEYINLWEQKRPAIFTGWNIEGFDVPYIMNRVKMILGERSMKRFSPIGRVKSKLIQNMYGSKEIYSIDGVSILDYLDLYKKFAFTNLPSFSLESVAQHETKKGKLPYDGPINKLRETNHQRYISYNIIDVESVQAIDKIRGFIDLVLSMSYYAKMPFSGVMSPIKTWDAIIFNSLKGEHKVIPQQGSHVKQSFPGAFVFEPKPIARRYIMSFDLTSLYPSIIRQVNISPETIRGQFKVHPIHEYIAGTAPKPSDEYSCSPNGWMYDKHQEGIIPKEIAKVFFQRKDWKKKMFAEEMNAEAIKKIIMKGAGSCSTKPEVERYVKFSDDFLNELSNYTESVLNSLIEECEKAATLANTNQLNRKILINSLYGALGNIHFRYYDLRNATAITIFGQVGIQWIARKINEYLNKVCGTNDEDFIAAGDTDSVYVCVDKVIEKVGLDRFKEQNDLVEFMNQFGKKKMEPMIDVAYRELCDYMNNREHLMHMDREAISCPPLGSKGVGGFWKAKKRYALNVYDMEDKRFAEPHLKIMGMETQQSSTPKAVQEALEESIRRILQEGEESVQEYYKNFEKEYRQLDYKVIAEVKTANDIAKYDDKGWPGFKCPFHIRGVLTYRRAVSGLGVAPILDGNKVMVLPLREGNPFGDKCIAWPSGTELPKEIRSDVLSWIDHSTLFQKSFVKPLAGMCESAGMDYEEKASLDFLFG
Assay: Counter-screen against bacteriophage T4 DNA polymerase
Type: biochemical
Details: DRC-2; 180'; concentration 20
What % inhibition T4 180' was measured for each of the following?
Unit % implied. Number only.

Please fill in: % inhibition T4 180' reported for "O=C(Nc1ccc2c(c1)Cc1cc(NC(=O)c3ccco3)ccc1-2)c1ccco1" = 20

Please fill in: % inhibition T4 180' reported for "COc1cccc(Oc2c(C(F)(F)F)oc3cc(OC(=O)N(C)C)ccc3c2=O)c1" = 3

Please fill in: % inhibition T4 180' reported for "COc1ccc(-c2cc3nc4c(c(=O)n3[nH]2)CCN(C(=O)CCc2ccccc2)C4)cc1" = -23

Please fill in: % inhibition T4 180' reported for "COc1ccc(-c2n[nH]cc2Oc2ccc(Cl)cc2)c(O)c1" = -30

----------
Molecular target: P. falciparum apicoplast DNA polymerase (Pf-apPOL) (Plasmodium falciparum, UniProt Q8ILY1)
Sequence (Q8ILY1 entry or part of it): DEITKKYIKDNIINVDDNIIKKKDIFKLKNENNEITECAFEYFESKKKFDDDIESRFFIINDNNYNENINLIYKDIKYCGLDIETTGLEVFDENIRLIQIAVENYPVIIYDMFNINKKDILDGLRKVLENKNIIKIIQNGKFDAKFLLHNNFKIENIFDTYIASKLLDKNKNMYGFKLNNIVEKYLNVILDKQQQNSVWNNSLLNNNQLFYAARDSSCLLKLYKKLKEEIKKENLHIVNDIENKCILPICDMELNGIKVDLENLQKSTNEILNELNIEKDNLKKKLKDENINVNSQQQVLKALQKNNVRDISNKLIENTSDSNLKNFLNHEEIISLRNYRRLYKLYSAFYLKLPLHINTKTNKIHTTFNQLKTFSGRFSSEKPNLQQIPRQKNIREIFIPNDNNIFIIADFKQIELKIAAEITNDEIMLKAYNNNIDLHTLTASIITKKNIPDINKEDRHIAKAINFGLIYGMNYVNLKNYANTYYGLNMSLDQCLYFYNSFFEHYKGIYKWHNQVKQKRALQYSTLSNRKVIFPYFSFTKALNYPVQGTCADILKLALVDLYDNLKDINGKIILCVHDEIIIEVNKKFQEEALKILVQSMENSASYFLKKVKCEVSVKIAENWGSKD
Experiment: Fluorescence-based high-throughput DNA polymerase assay (molecular beacon), primary screen and dose-response
Assay type: biochemical
Conditions: DRC-2; 5'; concentration 10
Quick rule: % inhibition Apo pol 5' of at least 40% means TRUE, below that means FALSE.

Task item: Identify whether the reported % inhibition Apo pol 5' of the following molecule is 40% or greater: "Cc1cc(C)c2c(O)nc(SCC(=O)c3ccc(O)c(O)c3)nc2n1"
Reply: TRUE

Task item: Identify whether the reported % inhibition Apo pol 5' of the following molecule is 40% or greater: "O=C(CSc1nnc(-c2ccncc2)[nH]1)c1ccc(O)c(O)c1"
Reply: TRUE

Task item: Identify whether the reported % inhibition Apo pol 5' of the following molecule is 40% or greater: "COCCN(CCOC)Cc1c(O)ccc2c1OC(=Cc1cc(Br)ccc1OC)C2=O"
Reply: FALSE

Task item: Identify whether the reported % inhibition Apo pol 5' of the following molecule is 40% or greater: "COc1ccc(C(=O)N2CCc3c(nc4cc(-c5ccccc5Cl)[nH]n4c3=O)C2)cn1"
Reply: FALSE

Task item: Identify whether the reported % inhibition Apo pol 5' of the following molecule is 40% or greater: "Cc1ccc(C(=O)/C=C/C=C/C=C/N(C)C)o1"
Reply: FALSE

Task item: Identify whether the reported % inhibition Apo pol 5' of the following molecule is 40% or greater: "COc1ccc(C=C2Oc3c(ccc4c3CN(Cc3ccco3)CO4)C2=O)c(OC)c1"
Reply: FALSE

Task item: Identify whether the reported % inhibition Apo pol 5' of the following molecule is 40% or greater: "COc1cc(Cl)c(C)cc1NC(=O)Cn1ccc2c(=O)[nH]ccc21"
Reply: FALSE

Task item: Identify whether the reported % inhibition Apo pol 5' of the following molecule is 40% or greater: "CCOc1ccc(/C=C2\N=C(c3cc([N+](=O)[O-])cc([N+](=O)[O-])c3)OC2=O)cc1"
Reply: TRUE

Task item: Identify whether the reported % inhibition Apo pol 5' of the following molecule is 40% or greater: "Cc1cccc2c(C(=O)NC(C)C)cc(N(C)C)nc12"
Reply: FALSE

Task item: Identify whether the reported % inhibition Apo pol 5' of the following molecule is 40% or greater: "O=C1NN(c2ccc(Cl)c(Cl)c2)C(=O)/C1=C/c1ccc(-c2ccc3c(c2)C(=O)OC3)o1"
Reply: FALSE

Task item: Identify whether the reported % inhibition Apo pol 5' of the following molecule is 40% or greater: "COc1cccc(Oc2c(C(F)(F)F)oc3cc(OC(=O)N(C)C)ccc3c2=O)c1"
Reply: FALSE

Task item: Identify whether the reported % inhibition Apo pol 5' of the following molecule is 40% or greater: "COc1ccc(S(=O)(=O)/N=C2\NC(=O)/C(=C3\C(=O)Nc4ccc([N+](=O)[O-])cc43)S2)cc1"
Reply: FALSE

Task item: Identify whether the reported % inhibition Apo pol 5' of the following molecule is 40% or greater: "COc1cc(NC(=O)c2ccccc2)c(OC)cc1NC(=O)Cc1cccs1"
Reply: FALSE

Task item: Identify whether the reported % inhibition Apo pol 5' of the following molecule is 40% or greater: "COc1ccc(-c2cc3nc4c(c(=O)n3[nH]2)CCN(C(=O)CCc2ccccc2)C4)cc1"
Reply: FALSE

Task item: Identify whether the reported % inhibition Apo pol 5' of the following molecule is 40% or greater: "O=C(O)c1c(F)c(F)c(-c2c(F)c(F)c(C(=O)O)c(F)c2F)c(F)c1F"
Reply: FALSE

Task item: Identify whether the reported % inhibition Apo pol 5' of the following molecule is 40% or greater: "Cc1cccc(-c2nnc3ccc(NS(=O)(=O)c4ccc(C)c(C)c4)nn23)c1"
Reply: FALSE

Task item: Identify whether the reported % inhibition Apo pol 5' of the following molecule is 40% or greater: "O=C(O)C(=O)Nc1nc(-c2ccc3c(c2)OCCO3)cs1"
Reply: FALSE

Task item: Identify whether the reported % inhibition Apo pol 5' of the following molecule is 40% or greater: "CC(=O)c1cc2c(N)c(/C(N)=N/C#N)sc2nc1C"
Reply: FALSE

Task item: Identify whether the reported % inhibition Apo pol 5' of the following molecule is 40% or greater: CCCCCCCCCCCC1SCC(C(=O)O)N1C(C)=O (stereo not shown)
Reply: FALSE

Task item: Identify whether the reported % inhibition Apo pol 5' of the following molecule is 40% or greater: "Oc1ccc(N=Nc2ccccc2)c(O)c1"
Reply: FALSE

Task item: Identify whether the reported % inhibition Apo pol 5' of the following molecule is 40% or greater: "O=C(CSc1nnc(-c2ccco2)[nH]1)c1ccc(Cl)cc1"
Reply: FALSE

Task item: Identify whether the reported % inhibition Apo pol 5' of the following molecule is 40% or greater: "CCCCCCCCCCCCCCCCCC(=O)CCN(C)C"
Reply: FALSE

Task item: Identify whether the reported % inhibition Apo pol 5' of the following molecule is 40% or greater: CSC1=C(C#N)C(=C(C#N)C#N)NC(c2ccccc2)=N1 [Molecule 2, CSc1nc([nH]c(=C(C#N)C#N)c1C#N)c1ccccc1]
Reply: FALSE

Task item: Identify whether the reported % inhibition Apo pol 5' of the following molecule is 40% or greater: "O=C(Nc1ccc2c(c1)Cc1cc(NC(=O)c3ccco3)ccc1-2)c1ccco1"
Reply: FALSE

Task item: Identify whether the reported % inhibition Apo pol 5' of the following molecule is 40% or greater: "O=C(O)c1cccc(N2N=C(C(F)(F)F)/C(=C/c3ccc(-c4ccccc4[N+](=O)[O-])o3)C2=O)c1"
Reply: TRUE

Task item: Identify whether the reported % inhibition Apo pol 5' of the following molecule is 40% or greater: "Oc1cccc2ccc(/C=C/c3ccc4c(c3)OCO4)nc12"
Reply: FALSE

Task item: Identify whether the reported % inhibition Apo pol 5' of the following molecule is 40% or greater: "COc1cccc(C(=O)N2CCc3c(nc4cc(-c5ccccc5)[nH]n4c3=O)C2)c1OC"
Reply: TRUE

Task item: Identify whether the reported % inhibition Apo pol 5' of the following molecule is 40% or greater: "O=C(O)c1cc([N+](=O)[O-])c(N2CCN(c3cccc(C(F)(F)F)c3)CC2)c([N+](=O)[O-])c1"
Reply: FALSE

Task item: Identify whether the reported % inhibition Apo pol 5' of the following molecule is 40% or greater: "CC(=O)Nc1cc(C(=O)NC(C)C)c2ccc(C)nc2c1"
Reply: FALSE

Task item: Identify whether the reported % inhibition Apo pol 5' of the following molecule is 40% or greater: "O=[N+]([O-])/C=C/c1ccc(-c2ccc(Br)cc2)o1"
Reply: FALSE

Task item: Identify whether the reported % inhibition Apo pol 5' of the following molecule is 40% or greater: CC(NC(=O)Cc1cc(=O)[nH]c(SCc2cccc(Cl)c2)n1)c1ccccc1 (stereo not shown)
Reply: FALSE
